test: Mouse PK, intravenous dosing; format: in vivo; details: intravenous 2 mg/kg, total body clearance from whole blood

[
  {
    "compound": "CS(=O)(=O)NC(=O)CCc1cn(-c2ccc(Br)cc2)nc1C1CCOCC1 [Compound 20]",
    "value.unit": "mL/min/kg",
    "relation.operator": "=",
    "CLb": 145
  },
  {
    "compound": "CS(=O)(=O)NC(=O)/C=C/c1cn(-c2ccc(Cl)cc2)nc1-c1ccncc1 [Compound 38]",
    "value.unit": "mL/min/kg",
    "relation.operator": ">",
    "CLb": 200
  },
  {
    "compound": "CS(=O)(=O)NC(=O)C1CC1c1cn(-c2ccc(Cl)cc2)nc1-c1ccncc1 (stereo not shown) [Compound 40]",
    "value.unit": "mL/min/kg",
    "relation.operator": ">",
    "CLb": 200
  },
  {
    "compound": "CS(=O)(=O)NC(=O)CCc1cn(-c2ccc(C(F)(F)F)nc2)nc1-c1ccc(Cl)cc1 [Compound 10]",
    "value.unit": "mL/min/kg",
    "relation.operator": "=",
    "CLb": 67.4
  },
  {
    "compound": "CS(=O)(=O)NC(=O)NCc1cc(-c2ccc(Br)cc2)oc1-c1ccncc1 [Compound 58]",
    "value.unit": "mL/min/kg",
    "relation.operator": ">",
    "CLb": 200
  },
  {
    "compound": "CS(=O)(=O)NC(=O)CCc1cn(-c2ccc(Br)cc2)nc1-c1cccnc1 [Compound 17]",
    "value.unit": "mL/min/kg",
    "relation.operator": "=",
    "CLb": 178
  },
  {
    "compound": "CS(=O)(=O)NC(=O)CCc1cc(-c2ccc(Br)cc2)nn1-c1ccc(Cl)cc1 [Compound 51]",
    "value.unit": "mL/min/kg",
    "relation.operator": "=",
    "CLb": 3.13
  }
]
